assay procedure: Stability in acidic conditions (Britten-Robinson buffer, HPLC)
Format: physicochemical
setup conditions: pH 7.0, 37°C, Britten-Robinson buffer; read-out: (T1/2) (converted)
endpoint: half-life (h)
One number for each entry, in h.

q: # query: half-life of entry COc1ccc2[nH]c([S+]([O-])Cc3ncc(C)c(OC)c3C)nc2c1 (stereo not shown) [Omeprazole, reference compound]
a: 27

====

assay procedure: Stability in acidic conditions (Britten-Robinson buffer, HPLC)
Assay type: physicochemical
setup conditions: britten-robinson buffer, pH 7
Method: The stability of the compound in acidic conditions was determined at 37 °C in Britten-Robinson buffer which had been previously adjusted to pH 3.0, 5.0 or 7.0. The compound was dissolved in this buffer by supersonic waves, and the filtered solution was monitored by high performance liquid chromatography (HPLC) (Tosoh TSK-gel ODS-120T 4.6-250mm, CH₃CN/10 mM phosphate buffer (pH 6.0), 1 ml/min., room temperature (25 °C), detector ultraviolet (UV) 240-250 nm). […]
endpoint: half-life (h)
One number for each entry, in h.

q: # query: half-life of entry CC(C)CNc1ccccc1C[S+]([O-])c1ncc[nH]1 (stereo not shown)
a: 63
